- Test system: Escherichia coli
- METHOD DESCRIPTION: Antibacterial activity against Escherichia coli CCM4517 after 24 hrs by microdilution broth method
- Assay type: functional
- EXPERIMENTAL CONDITIONS: CCM4517, 24 h
QUANTITY KIND: MIC

O=C(Nc1ccc(C(F)(F)F)cc1)c1ccc([N+](=O)[O-])cc1O; 500 µM

Q: # lookup: MIC of O=C(Nc1cccc(F)c1)c1cc([N+](=O)[O-])ccc1O
Ans: > 500 µM

Q: State the recorded MIC for this entry: O=C(Nc1ccc([N+](=O)[O-])c(C(F)(F)F)c1)c1cc([N+](=O)[O-])ccc1O
Ans: > 500 µM

Q: Returns the measured MIC for the input compound. Input: O=C(Nc1cccc(Br)c1)c1cc([N+](=O)[O-])ccc1O
Ans: > 500 µM

Q: For the compound shown here, O=C(Nc1cccc(I)c1)c1cc([N+](=O)[O-])ccc1O , give the reported MIC.
Ans: > 500 µM

Q: Entry O=C(Nc1cccc(Cl)c1)c1ccc([N+](=O)[O-])cc1O has what MIC?
Ans: > 500 µM

Q: Would you kindly share the measured MIC for O=C(Nc1cc(C(F)(F)F)cc(C(F)(F)F)c1)c1cc([N+](=O)[O-])ccc1O ?
Ans: > 500 µM

Q: Which measured MIC value corresponds to O=C(Nc1cccc(I)c1)c1ccc([N+](=O)[O-])cc1O ?
Ans: > 500 µM

###

- System: Mycobacterium kansasii
- METHOD DESCRIPTION: Antimycobacterial activity against Mycobacterium kansasii 6509/96 after 7 days
- Format: functional
- EXPERIMENTAL CONDITIONS: 6509/96, 168 h
Below, each entry is listed with its recorded MIC.
Answer in µM, number only, no unit symbol.

Previously resolved entries follow.
O=C(Nc1cc(C(F)(F)F)cc(C(F)(F)F)c1)c1cc([N+](=O)[O-])ccc1O; 16
O=C(Nc1ccc([N+](=O)[O-])c(C(F)(F)F)c1)c1ccc([N+](=O)[O-])cc1O; 16
O=C(Nc1ccc([N+](=O)[O-])c(C(F)(F)F)c1)c1cc([N+](=O)[O-])ccc1O; 62.5
NNC(=O)c1ccncc1 [ISONIAZID]; 4
O=C(Nc1cccc(F)c1)c1cccc([N+](=O)[O-])c1O; 125

Q: Name the reported MIC value associated with the compound O=C(Nc1cccc(I)c1)c1cc([N+](=O)[O-])ccc1O
Ans: 32

Q: Can you look up the measured MIC of O=C(Nc1ccc(C(F)(F)F)cc1)c1cc([N+](=O)[O-])ccc1O for me?
Ans: 16

Q: Given the compound O=C(Nc1ccc(Cl)c(Cl)c1)c1cccc([N+](=O)[O-])c1O , what is its reported MIC?
Ans: 62.5

Q: Query (compound): O=C(Nc1cc(C(F)(F)F)cc(C(F)(F)F)c1)c1cccc([N+](=O)[O-])c1O ; field requested: MIC
Ans: 32

Q: What value of MIC has been recorded for this entry: O=C(Nc1cccc(C(F)(F)F)c1)c1ccc([N+](=O)[O-])cc1O
Ans: 8

Q: Name the reported MIC value associated with the compound O=C(Nc1cccc(Cl)c1)c1ccc([N+](=O)[O-])cc1O
Ans: 16

Q: Which MIC reading was recorded for the compound O=C(Nc1cccc(C(F)(F)F)c1)c1cc([N+](=O)[O-])ccc1O ?
Ans: 32

Q: Value lookup for MIC; key = O=C(Nc1cccc(C(F)(F)F)c1)c1cccc([N+](=O)[O-])c1O
Ans: 125

Q: Quick check: MIC of O=C(Nc1cccc(Br)c1)c1cccc([N+](=O)[O-])c1O ?
Ans: 125

Q: Entry O=C(Nc1ccc([N+](=O)[O-])cc1)c1ccc([N+](=O)[O-])cc1O has what MIC?
Ans: 32

Q: Look at this compound and give its reported MIC. O=C(Nc1ccc(C(F)(F)F)cc1)c1ccc([N+](=O)[O-])cc1O
Ans: 4

Q: Request the reported MIC associated with O=C(Nc1cccc(F)c1)c1cc([N+](=O)[O-])ccc1O
Ans: 32

Q: // query MIC value for entry O=C(Nc1cccc([N+](=O)[O-])c1)c1ccc([N+](=O)[O-])cc1O
Ans: 32

Q: GET /values?readout=MIC&item= O=C(Nc1ccc(Cl)c(Cl)c1)c1ccc([N+](=O)[O-])cc1O
Ans: 8

###

- Test system: Nakaseomyces glabratus
- METHOD DESCRIPTION: Antifungal activity against Candida glabrata 20/I after 48 hrs by microdilution broth method
- Format: functional
Quick list: MIC per entry.

Reference set (3 entries):
O=C(Nc1cccc(C(F)(F)F)c1)c1ccc([N+](=O)[O-])cc1O; > 500 µM
O=C(Nc1cc(C(F)(F)F)cc(C(F)(F)F)c1)c1cc([N+](=O)[O-])ccc1O; > 500 µM
O=C(Nc1cccc([N+](=O)[O-])c1)c1cc([N+](=O)[O-])ccc1O; > 250 µM

Q: I would be grateful if you could share the reported MIC for O=C(Nc1ccc([N+](=O)[O-])c(C(F)(F)F)c1)c1ccc([N+](=O)[O-])cc1O .
Ans: > 500 µM

Q: # lookup: MIC of O=C(Nc1cccc(Cl)c1)c1ccc([N+](=O)[O-])cc1O
Ans: > 500 µM

###

- Test system: Enterococcus sp.
- METHOD DESCRIPTION: Antibacterial activity against Enterococcus sp. J 14365/08 after 48 hrs by microdilution broth method
- Assay type: functional
- EXPERIMENTAL CONDITIONS: J 14365/08, 48 h
QUANTITY KIND: MIC

Some solved cases for reference:
O=C(Nc1ccc([N+](=O)[O-])cc1)c1cc([N+](=O)[O-])ccc1O; > 500 µM
O=C(Nc1cccc(C(F)(F)F)c1)c1ccc([N+](=O)[O-])cc1O; 500 µM
O=C(Nc1cc(C(F)(F)F)cc(C(F)(F)F)c1)c1ccc([N+](=O)[O-])cc1O; 125 µM
O=C(Nc1ccc([N+](=O)[O-])cc1)c1ccc([N+](=O)[O-])cc1O; > 500 µM
O=C(Nc1cccc(Br)c1)c1cc([N+](=O)[O-])ccc1O; > 500 µM

Q: Could you share which MIC value was measured for O=C(Nc1ccc([N+](=O)[O-])c(C(F)(F)F)c1)c1cc([N+](=O)[O-])ccc1O ?
Ans: > 500 µM

Q: // lookup MIC for O=C(Nc1cccc(Cl)c1)c1cc([N+](=O)[O-])ccc1O
Ans: > 500 µM

Q: Entry O=C(Nc1ccc(Cl)c(Cl)c1)c1ccc([N+](=O)[O-])cc1O has what MIC?
Ans: 500 µM

Q: Data request, read-out MIC, for O=C(Nc1ccc(C(F)(F)F)cc1)c1cc([N+](=O)[O-])ccc1O
Ans: > 500 µM

Q: Param item = O=C(Nc1cccc(F)c1)c1cc([N+](=O)[O-])ccc1O ; retrieve measured MIC.
Ans: > 500 µM

###

- Tested on: Klebsiella pneumoniae
- METHOD DESCRIPTION: Antibacterial activity against Klebsiella pneumoniae D 11750/08 after 48 hrs by microdilution broth method
- Type: functional
- EXPERIMENTAL CONDITIONS: D 11750/08, 48 h
Below, each of the compounds is paired with its reported MIC value.

Q: Query: MIC; subject: O=C(Nc1ccc([N+](=O)[O-])c(C(F)(F)F)c1)c1ccc([N+](=O)[O-])cc1O
Ans: > 500 µM

Q: Given O=C(Nc1cccc(C(F)(F)F)c1)c1cc([N+](=O)[O-])ccc1O , state its recorded MIC.
Ans: > 500 µM

Q: Field request: MIC | item: O=C(Nc1cccc(Cl)c1)c1ccc([N+](=O)[O-])cc1O
Ans: > 500 µM

Q: I am curious: what MIC value has been reported for O=C(Nc1cccc(C(F)(F)F)c1)c1ccc([N+](=O)[O-])cc1O ?
Ans: 500 µM

Q: Name the recorded MIC for O=C(Nc1cccc([N+](=O)[O-])c1)c1ccc([N+](=O)[O-])cc1O .
Ans: > 250 µM

###

Each entry below carries its reported MIC.
- Tested on: Escherichia coli
- METHOD DESCRIPTION: Antibacterial activity against Escherichia coli CCM4517 after 24 hrs by microdilution broth method
- Type: functional
- EXPERIMENTAL CONDITIONS: CCM4517, 24 h

Here's what some known entries look like.
O=C(Nc1ccc(Cl)c(Cl)c1)c1ccc([N+](=O)[O-])cc1O; > 500 µM
O=C(Nc1ccc(Cl)c(Cl)c1)c1cc([N+](=O)[O-])ccc1O; > 500 µM
O=C(Nc1cccc([N+](=O)[O-])c1)c1ccc([N+](=O)[O-])cc1O; > 250 µM
O=C(Nc1ccc([N+](=O)[O-])cc1)c1ccc([N+](=O)[O-])cc1O; 500 µM

Attention now shifts to the item below.
Q: Which MIC value is on record for O=C(Nc1ccc([N+](=O)[O-])cc1)c1cc([N+](=O)[O-])ccc1O ?
Ans: > 500 µM
